Values from patent US9637483B2

Molecular target: JAK2 (Homo sapiens, UniProt O60674)
Construct: purchased Invitrogen
Sequence (O60674 whole entry): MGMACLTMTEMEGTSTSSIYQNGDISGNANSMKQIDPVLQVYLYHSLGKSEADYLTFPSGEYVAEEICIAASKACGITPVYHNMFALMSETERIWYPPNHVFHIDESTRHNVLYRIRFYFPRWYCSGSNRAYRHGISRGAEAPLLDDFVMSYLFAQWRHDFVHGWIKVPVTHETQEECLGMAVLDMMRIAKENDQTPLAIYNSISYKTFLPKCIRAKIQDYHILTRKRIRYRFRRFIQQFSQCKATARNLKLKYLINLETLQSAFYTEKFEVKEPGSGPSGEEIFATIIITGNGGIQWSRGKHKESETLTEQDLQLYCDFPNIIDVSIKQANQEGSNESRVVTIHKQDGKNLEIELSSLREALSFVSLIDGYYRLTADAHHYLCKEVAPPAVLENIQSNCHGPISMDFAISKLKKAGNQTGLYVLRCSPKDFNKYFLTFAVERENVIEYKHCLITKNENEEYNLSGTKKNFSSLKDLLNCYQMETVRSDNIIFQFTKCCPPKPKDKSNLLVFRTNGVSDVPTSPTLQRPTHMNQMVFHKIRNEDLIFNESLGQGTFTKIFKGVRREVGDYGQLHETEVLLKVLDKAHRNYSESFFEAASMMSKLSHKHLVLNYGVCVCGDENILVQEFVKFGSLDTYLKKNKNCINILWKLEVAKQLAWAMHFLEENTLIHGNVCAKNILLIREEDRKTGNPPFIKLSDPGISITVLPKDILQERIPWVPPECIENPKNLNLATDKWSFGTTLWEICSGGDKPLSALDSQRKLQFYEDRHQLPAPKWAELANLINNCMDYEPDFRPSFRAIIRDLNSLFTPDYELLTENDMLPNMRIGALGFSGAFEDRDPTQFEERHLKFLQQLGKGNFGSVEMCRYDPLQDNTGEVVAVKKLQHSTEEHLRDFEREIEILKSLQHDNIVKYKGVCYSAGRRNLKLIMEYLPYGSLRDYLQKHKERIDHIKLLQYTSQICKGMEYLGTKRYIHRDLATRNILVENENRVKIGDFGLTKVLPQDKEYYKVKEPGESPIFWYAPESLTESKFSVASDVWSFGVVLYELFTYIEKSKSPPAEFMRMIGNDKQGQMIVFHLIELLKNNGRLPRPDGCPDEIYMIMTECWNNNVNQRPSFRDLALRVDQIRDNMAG
Test: JAK2 enzyme inhibition test (LANCE method)
Assay type: biochemical
Details: 1 μM test compound; read-out: JAK2 enzyme inhibitory activity (%, 1 μM)
parameter: inhibition at 1 µM (%)
# output: bare number, implied unit %

Field: example entries. Status: answers known.
CC(C)[C@H](C)n1cc(-c2cc(N(C)C(C)C)n(C)n2)c2[nH]nc(N)c2c1=O; 97
CC(C)[C@H](C)n1cc(-c2cc(N3CCC[C@H]3CO)n(C)n2)c2[nH]nc(N)c2c1=O; 98
CO[C@H]1CCN(c2cc(-c3cn([C@@H](C)C(C)C)c(=O)c4c(N)n[nH]c34)nn2C)C1; 98
Cn1nc(-c2cn(C3CCCC3(C)C)c(=O)c3c(N)n[nH]c23)cc1CN1CCS(=O)(=O)CC1 (racemic) [Example 72]; 100
CCn1nc(-c2cn([C@@H](C)C(C)C)c(=O)c3c(N)n[nH]c23)cc1N1CCS(=O)(=O)CC1; 90
CC(C)[C@H](C)n1cc(-c2cc(N3CCN(S(C)(=O)=O)CC3)n(C)n2)c2[nH]nc(N)c2c1=O; 98

### Prompt Please indicate inhibition at 1 µM recorded for CC(C)[C@H](C)n1cc(-c2cc(N3CC[C@H](O)C3)n(C)n2)c2[nH]nc(N)c2c1=O
### Response 98

### Prompt Please indicate inhibition at 1 µM recorded for COC1(c2cc(-c3cn(-c4c(F)cccc4F)c(=O)c4c(N)n[nH]c34)nn2C)CN(S(C)(=O)=O)C1
### Response 98

---

Below, each entry is listed alongside its reported inhibition at 1 µM.
Target: JAK3 (Homo sapiens, UniProt P52333)
Construct: purchased Invitrogen
Sequence (P52333 1-1124): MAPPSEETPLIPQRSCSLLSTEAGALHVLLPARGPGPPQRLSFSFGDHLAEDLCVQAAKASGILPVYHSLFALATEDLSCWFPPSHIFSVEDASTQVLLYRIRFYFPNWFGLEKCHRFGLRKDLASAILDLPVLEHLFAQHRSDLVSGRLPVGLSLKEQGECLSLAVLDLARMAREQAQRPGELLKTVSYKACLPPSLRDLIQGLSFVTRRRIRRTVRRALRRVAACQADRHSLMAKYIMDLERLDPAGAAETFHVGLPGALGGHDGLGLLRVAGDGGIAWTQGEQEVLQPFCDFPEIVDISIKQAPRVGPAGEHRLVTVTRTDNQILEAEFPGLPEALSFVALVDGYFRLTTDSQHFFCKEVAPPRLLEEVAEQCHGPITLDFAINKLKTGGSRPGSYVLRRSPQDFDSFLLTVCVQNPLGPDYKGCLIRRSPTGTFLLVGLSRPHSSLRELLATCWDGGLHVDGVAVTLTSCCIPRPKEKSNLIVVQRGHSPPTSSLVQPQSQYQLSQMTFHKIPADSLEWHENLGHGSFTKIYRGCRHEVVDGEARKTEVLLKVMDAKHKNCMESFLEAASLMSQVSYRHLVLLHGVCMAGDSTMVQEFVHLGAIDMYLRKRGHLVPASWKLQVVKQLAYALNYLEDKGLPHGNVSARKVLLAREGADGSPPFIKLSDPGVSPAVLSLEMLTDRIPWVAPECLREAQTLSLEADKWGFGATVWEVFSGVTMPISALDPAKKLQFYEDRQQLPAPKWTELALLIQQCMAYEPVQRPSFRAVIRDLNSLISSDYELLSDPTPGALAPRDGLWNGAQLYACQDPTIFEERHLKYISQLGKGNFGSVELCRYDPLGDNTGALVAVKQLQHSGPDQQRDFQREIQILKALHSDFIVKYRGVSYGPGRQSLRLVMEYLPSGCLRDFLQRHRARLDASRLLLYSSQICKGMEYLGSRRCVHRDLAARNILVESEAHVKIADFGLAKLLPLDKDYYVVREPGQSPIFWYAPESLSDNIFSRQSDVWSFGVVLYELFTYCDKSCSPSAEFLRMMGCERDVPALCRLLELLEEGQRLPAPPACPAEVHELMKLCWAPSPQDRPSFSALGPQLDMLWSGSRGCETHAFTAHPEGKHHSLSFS
Assay: JAK3 enzyme inhibition test (LANCE method)
Type: biochemical
Details: 1 μM test compound; read-out: JAK3 enzyme inhibitory activity (%, 1 μM)
# output: bare number, implied unit %

Field: example entries. Status: answers known.
COC[C@H]1CCCN1c1cc(-c2cn([C@@H](C)C(C)C)c(=O)c3c(N)n[nH]c23)nn1C [Example 135]; 99
CC(C)[C@H](C)n1cc(-c2cc(N3CCC[C@@H]3CO)n(C)n2)c2[nH]nc(N)c2c1=O [Example 22]; 99
Cn1nc(-c2cn(C(C3CC3)C3CC3)c(=O)c3c(N)n[nH]c23)cc1N1CCC[C@H]1CO [Example 168]; 100
COC1(c2cc(-c3cn(-c4c(F)cccc4F)c(=O)c4c(N)n[nH]c34)nn2C)CN(C(C)=O)C1 [Example 131]; 99
CO[C@H]1CCN(c2cc(-c3cn(C(C4CC4)C4CC4)c(=O)c4c(N)n[nH]c34)nn2C)C1 [Example 167]; 100
CC(C)[C@H](C)n1cc(-c2cc(CN3CCCC3)n(C)n2)c2[nH]nc(N)c2c1=O [Example 44]; 99
COCCn1nc(-c2cn([C@@H](C)C(C)C)c(=O)c3c(N)n[nH]c23)cc1C(C)(C)O [Example 36]; 85
Cn1nc(-c2cn(C3CCCC3(C)C)c(=O)c3c(N)n[nH]c23)cc1CN1CCS(=O)(=O)CC1 (stereo not drawn) [Example 74]; 99

// next item, inhibition at 1 µM requested
### Prompt Please indicate inhibition at 1 µM recorded for CCn1nc(-c2cn([C@@H](C)C(C)C)c(=O)c3c(N)n[nH]c23)cc1N1CCS(=O)(=O)CC1 [Example 28]
### Response 95
